molecular target: NADH-ubiquinone oxidoreductase chain 1 (Bos taurus); test: Inhibition of Bos taurus (beef) heart NAD1 assessed as NADH-ubiquinone oxidoreductase activity
Sequence (P03887 whole entry): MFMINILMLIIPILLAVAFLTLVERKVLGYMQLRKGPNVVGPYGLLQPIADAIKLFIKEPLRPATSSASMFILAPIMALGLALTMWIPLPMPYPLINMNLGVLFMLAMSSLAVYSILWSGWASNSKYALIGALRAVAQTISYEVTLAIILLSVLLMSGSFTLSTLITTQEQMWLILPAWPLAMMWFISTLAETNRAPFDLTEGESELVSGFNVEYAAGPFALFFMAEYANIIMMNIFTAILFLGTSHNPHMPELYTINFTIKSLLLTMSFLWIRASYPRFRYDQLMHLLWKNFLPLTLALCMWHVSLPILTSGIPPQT
quantityKind: IC50 (µM)
The response must be a number in µM with no trailing unit.

Below: 3 compounds and their reported IC50.
# compound, subjectOfTest, quantityKind, displayUnit, assayValue
rows = [
    ("CC1=C(C(C)c2cccc(Oc3ccccc3)c2)OC2/C(=N/O)CCN2C1=O (centres undefined)", "NADH-ubiquinone oxidoreductase chain 1 (Bos taurus)", "IC50", "µM", 3.44),
    ("CCCCCCCC1=C(C)C(=O)N2CC/C(=N\\O)C2O1 (centres undefined)", "NADH-ubiquinone oxidoreductase chain 1 (Bos taurus)", "IC50", "µM", 1.52),
    ("CC(C(=O)C(C)c1cccc(Oc2ccccc2)c1)C(=O)N1C=CCC1 (single isomer, unassigned; diastereomer 1)", "NADH-ubiquinone oxidoreductase chain 1 (Bos taurus)", "IC50", "µM", 6.57),
]

From here, focus on the item given below.
CC1=C(C(C)c2cccc(Oc3ccccc3)c2)OC2C(O)CCN2C1=O (single isomer, unassigned; diastereomer 2) tested on NADH-ubiquinone oxidoreductase chain 1 (Bos taurus) gave IC50: 11.9

Taken from ChEMBL document CHEMBL3046857.
